- Assayed system: CYP2C19 (Homo sapiens, UniProt P33261)
- Construct: human liver microsomes (0.25 mg/mL); from tissue; host or cells: human liver microsomes
- Sequence (P33261 whole entry): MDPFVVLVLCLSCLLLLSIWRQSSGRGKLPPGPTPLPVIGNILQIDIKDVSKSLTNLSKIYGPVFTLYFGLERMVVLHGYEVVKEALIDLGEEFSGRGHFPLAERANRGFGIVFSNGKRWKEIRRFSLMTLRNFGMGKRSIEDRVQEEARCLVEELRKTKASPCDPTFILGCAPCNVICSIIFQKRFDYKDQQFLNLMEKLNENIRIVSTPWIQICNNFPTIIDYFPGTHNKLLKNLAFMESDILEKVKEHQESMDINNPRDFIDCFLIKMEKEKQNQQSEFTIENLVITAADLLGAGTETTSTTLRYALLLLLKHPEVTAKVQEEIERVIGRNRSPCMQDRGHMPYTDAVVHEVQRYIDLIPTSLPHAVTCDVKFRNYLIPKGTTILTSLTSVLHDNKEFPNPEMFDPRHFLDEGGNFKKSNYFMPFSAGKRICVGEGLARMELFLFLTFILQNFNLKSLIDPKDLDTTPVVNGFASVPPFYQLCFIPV
- Procedure summary: Inhibitory effect on CYP coenzyme activity, human liver microsomes
- Type: in vitro ADME
- Test parameters: 10 μM compound, human liver microsomes 0.25 mg/mL, substrate S-mephenytoin, 15 minutes
Measurement name: CYP2C19 coenzyme activity (%) with respect to control group not treated
One number for each entry, in %.

The following compounds have reported results that may help.
• Cn1c(=O)n(C)c2c(Cl)cc(NN=C(C#N)C#N)cc21 [Compound 11] = 88.4
• CC(C)n1c(=O)n(C(C)C)c2ncc(NN=C(C#N)C#N)cc21 [Compound 34] = 88.8

Required: CYP2C19 coenzyme activity (%) with respect to control group not treated, one value per compound below.
1. Cn1c(=O)n(C)c2cc(NN=C(C#N)C#N)c(Cl)cc21 [Compound 10]
2. Cn1c(=O)n(C)c2ncc(NN=C(C#N)C#N)cc21 [Compound 12]
3. N#CC(C#N)=NNc1cccc2c(=O)[nH]ccc12 [Compound 4]
4. Cn1c(=O)n(C(F)F)c2cc(NN=C(C#N)C#N)ccc21 [Compound 37]
5. Cc1cc(=O)n(C)c2ccc(NN=C(C#N)C#N)cc12 [Compound 27]
6. CC(C)n1c(=O)oc2cc(NN=C(C#N)C#N)ccc21 [Compound 20]
7. CC(C)n1c(=O)sc2cc(NN=C(C#N)C#N)ccc21 [Compound 18]
8. Cn1ccc2ccc(NN=C(C#N)C#N)cc2c1=O [Compound 2]

[A]
1: 94.6; 2: 92.2; 3: 89.7; 4: 90.7; 5: 96.3; 6: 85.7; 7: 63.2; 8: 79.2

Required: CYP2C19 coenzyme activity (%) with respect to control group not treated, one value per compound below.
1. CCn1c(=O)n(C(C)C)c2ncc(NN=C(C#N)C#N)cc21 [Compound 55]
2. Cn1c(=O)oc2cc(NN=C(C#N)C#N)ccc21 [Compound 16]
3. N#CC(C#N)=NNc1ccc2[nH]c(=O)sc2c1 [Compound 13]
4. CC(C)n1c(=O)n(C(C)C)c2cc(NN=C(C#N)C#N)ccc21 [Compound 23]
5. CCn1c(=O)n(C)c2ccc(NN=C(C#N)C#N)cc21 [Compound 35]
6. N#CC(C#N)=NNc1ccc2[nH]c(=O)oc2c1 [Compound 15]
7. CC(C)n1ccc2c(NN=C(C#N)C#N)cccc2c1=O [Compound 6]

[A]
73.1
90.8
55.2
69.7
100
90.3
37.8
